Molecular target: Kappa-type opioid receptor (Homo sapiens, UniProt P41145)
Sequence (P41145 whole entry): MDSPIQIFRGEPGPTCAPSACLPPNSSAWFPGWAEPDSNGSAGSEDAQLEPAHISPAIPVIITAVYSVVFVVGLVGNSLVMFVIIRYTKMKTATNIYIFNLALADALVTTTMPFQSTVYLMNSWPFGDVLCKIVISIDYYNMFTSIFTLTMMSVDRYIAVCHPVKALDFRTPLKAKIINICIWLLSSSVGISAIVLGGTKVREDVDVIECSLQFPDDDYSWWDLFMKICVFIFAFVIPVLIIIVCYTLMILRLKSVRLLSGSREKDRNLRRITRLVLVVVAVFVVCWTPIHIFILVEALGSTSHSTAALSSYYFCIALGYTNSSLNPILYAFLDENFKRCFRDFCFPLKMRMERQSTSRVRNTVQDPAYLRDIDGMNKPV
Details: CHO
Description: Ability to displace U-69,593 from human recombinant Opioid receptor kappa 1 in CHO cells using [35S]- GTP-gamma S Assay
measuredParameter: Ke (nM)

INSERT INTO assay_data (moleculesmiles, measuredparameter, unitabbrev, endpointresult) VALUES
  ('O=C(NCCc1ccccc1)c1ccc2[nH]c3c(c2c1)C[C@@]1(O)C2Cc4ccc(O)c5c4[C@@]1(CCN2CC1CC1)[C@H]3O5', 'Ke', 'nM', 0.17),
  ('CCCCCCCNC(=O)c1ccc2[nH]c3c(c2c1)C[C@@]1(O)C2Cc4ccc(O)c5c4[C@@]1(CCN2CC1CC1)[C@H]3O5', 'Ke', 'nM', 0.29),
  ('CCC/N=C(\N)Cc1ccc2[nH]c3c(c2c1)C[C@@]1(O)C2Cc4ccc(O)c5c4[C@@]1(CCN2CC1CC1)[C@H]3O5', 'Ke', 'nM', 0.05),
  ('CCCC(=N)NCCc1ccc2[nH]c3c(c2c1)C[C@@]1(O)C2Cc4ccc(O)c5c4[C@@]1(CCN2CC1CC1)[C@H]3O5', 'Ke', 'nM', 0.18),
  ('CCCCC/N=C(\N)Cc1ccc2[nH]c3c(c2c1)C[C@@]1(O)C2Cc4ccc(O)c5c4[C@@]1(CCN2CC1CC1)[C@H]3O5', 'Ke', 'nM', 0.21),
  ('CCNC(=O)NCCc1ccc2[nH]c3c(c2c1)C[C@@]1(O)C2Cc4ccc(O)c5c4[C@@]1(CCN2CC1CC1)[C@H]3O5', 'Ke', 'nM', 2.47),
  ('CCCCC(=N)NCCc1ccc2[nH]c3c(c2c1)C[C@@]1(O)C2Cc4ccc(O)c5c4[C@@]1(CCN2CC1CC1)[C@H]3O5', 'Ke', 'nM', 0.17),
  ('CC(C)CC(=N)NCCc1ccc2[nH]c3c(c2c1)C[C@@]1(O)C2Cc4ccc(O)c5c4[C@@]1(CCN2CC1CC1)[C@H]3O5', 'Ke', 'nM', 0.32),
  ('CC(=N)NCCc1ccc2[nH]c3c(c2c1)C[C@@]1(O)C2Cc4ccc(O)c5c4[C@@]1(CCN2CC1CC1)[C@H]3O5', 'Ke', 'nM', 0.21),
  ('CCC(=N)NCCc1ccc2[nH]c3c(c2c1)C[C@@]1(O)C2Cc4ccc(O)c5c4[C@@]1(CCN2CC1CC1)[C@H]3O5', 'Ke', 'nM', 0.24),
  ('CCCCNC(=O)NCCc1ccc2[nH]c3c(c2c1)C[C@@]1(O)C2Cc4ccc(O)c5c4[C@@]1(CCN2CC1CC1)[C@H]3O5', 'Ke', 'nM', 1.52),
  ('CCC(=O)NCCc1ccc2[nH]c3c(c2c1)C[C@@]1(O)C2Cc4ccc(O)c5c4[C@@]1(CCN2CC1CC1)[C@H]3O5', 'Ke', 'nM', 0.48),
  ('CCCCCCNC(=O)NCCc1ccc2[nH]c3c(c2c1)C[C@@]1(O)C2Cc4ccc(O)c5c4[C@@]1(CCN2CC1CC1)[C@H]3O5', 'Ke', 'nM', 1.71),
  ('O=C(NCCCCc1ccccc1)c1ccc2[nH]c3c(c2c1)C[C@@]1(O)C2Cc4ccc(O)c5c4[C@@]1(CCN2CC1CC1)[C@H]3O5', 'Ke', 'nM', 0.26);
